Quick note: these are IC50 numbers for system: PIK3CG (human)
PARAMETER_MEASURED: IC50 (nM)

- SMILES_REPRESENTATION: "CN1CCc2c(nc(-c3ccc(NC(=O)Nc4cccnc4)cc3)nc2N2CCOCC2)C1"
  OUTPUT_UNIT: "nM"
  READOUT_VALUE: 1370
- SMILES_REPRESENTATION: "CN1CCc2c(nc(-c3ccc(NC(=O)Nc4cccnc4)cc3)nc2N2C3CCC2COC3)C1"
  OUTPUT_UNIT: "nM"
  READOUT_VALUE: 12000
- SMILES_REPRESENTATION: "CNC(=O)Nc1ccc(-c2nc3c(c(N4CC5CCC(C4)O5)n2)CCN(C(=O)COC)C3)cc1"
  OUTPUT_UNIT: "nM"
  READOUT_VALUE: 830

I. CNC(=O)Nc1ccc(-c2nc3c(c(N4C5CCC4COC5)n2)CN(S(C)(=O)=O)C3)cc1
II. CS(=O)(=O)N1CCc2c(nc(-c3ccc(NC(=O)Nc4cccnc4)cc3)nc2N2C3CCC2COC3)C1
III. CNC(=O)Nc1ccc(-c2nc3c(c(N4CC5CCC(C4)O5)n2)CCN(C(=O)c2c(F)cccc2F)C3)cc1
Sort the 3 compounds by IC50; largest first, smallest last. Answer format: list of labels, ordered as asked. II, III, I
(II: 3990 nM, III: 300 nM, I: 70 nM)
